Listed compounds paired with reported EC90
# System: HCV replicon cells
# experimental-protocol: Cell-based HCV replicon assay (replicon RNA level by real time PCR, Taqman)
# run-conditions: Hepatitis C virus, 72 h, HCV replicon cells, replicon RNA level by real time PCR, harvested day 3; read-out: EC90 (μM) range
attribute-measured: EC90

[
  {
    "compound": "CCNC(=O)OC[C@H]1C[C@@H](Nc2nc(NCC3CC3)nc(C)c2-c2nc3ccccc3s2)[C@H](O)[C@@H]1O",
    "assayed-system": "HCV replicon cells",
    "observed-result": "0.5 to 5 µM"
  },
  {
    "compound": "Cc1nc(NCC(F)(F)F)nc(NC2CCNC2)c1-c1nc2ccccc2s1 (centres unmarked)",
    "assayed-system": "HCV replicon cells",
    "observed-result": "> 5 µM"
  },
  {
    "compound": "Cc1nc(NCC(O)c2ccccc2)nc(N[C@@H]2C[C@H](CO)[C@@H](O)[C@H]2O)c1-c1nc2cnccc2s1 (some centres unmarked)",
    "assayed-system": "HCV replicon cells",
    "observed-result": "< 0.5 µM"
  },
  {
    "compound": "Cc1nc(NCCc2ccc(Cl)c(Cl)c2)nc(N[C@@H]2C[C@H](CO)[C@@H](O)[C@H]2O)c1-c1nc2cnccc2s1",
    "assayed-system": "HCV replicon cells",
    "observed-result": "< 0.5 µM"
  },
  {
    "compound": "Cc1nc(NCC(F)(F)F)nc(N[C@@H]2C[C@H](CN3CCCS3(=O)=O)[C@@H](O)[C@H]2O)c1-c1nc2ccccc2s1",
    "assayed-system": "HCV replicon cells",
    "observed-result": "< 0.5 µM"
  },
  {
    "compound": "Cc1nc(N[C@H](C)C2CC2)nc(N[C@@H]2C[C@H](CO)[C@@H](O)C2(C)O)c1-c1nc2cnccc2s1 (some centres unmarked)",
    "assayed-system": "HCV replicon cells",
    "observed-result": "< 0.5 µM"
  },
  {
    "compound": "CO[C@@H]1[C@H](O)[C@@H](CO)C[C@H]1Nc1nc(N[C@H](C)c2ccc(C)cc2)nc(C)c1-c1nc2cnccc2s1",
    "assayed-system": "HCV replicon cells",
    "observed-result": "< 0.5 µM"
  },
  {
    "compound": "Cc1nc(NCC(F)(F)F)nc(N[C@@H]2CC[C@@H](O)C2O)c1-c1nc2ccccc2s1 (some centres unmarked)",
    "assayed-system": "HCV replicon cells",
    "observed-result": "0.5 to 5 µM"
  },
  {
    "compound": "Cc1nc(NC2CC2)nc(N[C@@H]2CC[C@@H](O)[C@@]2(C)O)c1-c1nc2cnccc2s1",
    "assayed-system": "HCV replicon cells",
    "observed-result": "0.5 to 5 µM"
  },
  {
    "compound": "CCOc1nccc2sc(-c3c(C)nc(N[C@H](C)c4ccc(C)cc4)nc3N[C@@H]3C[C@H](CO)[C@@H](O)[C@H]3O)nc12",
    "assayed-system": "HCV replicon cells",
    "observed-result": "< 0.5 µM"
  },
  {
    "compound": "Cc1ccc([C@H](C)Nc2nc(C)c(-c3nc4cnccc4s3)c(N[C@@H]3CC[C@@H](O)[C@@]3(C)O)n2)cc1",
    "assayed-system": "HCV replicon cells",
    "observed-result": "< 0.5 µM"
  },
  {
    "compound": "Cc1nc(C#N)nc(N[C@@H]2C[C@H](CO)[C@@H](O)[C@H]2O)c1-c1nc2ccccc2s1",
    "assayed-system": "HCV replicon cells",
    "observed-result": "> 5 µM"
  },
  {
    "compound": "CCCc1nccc2sc(-c3c(C)nc(N[C@H](C)C4CC4)nc3N[C@@H]3C[C@H](Cn4ccnn4)[C@@H](O)[C@H]3O)nc12",
    "assayed-system": "HCV replicon cells",
    "observed-result": "< 0.5 µM"
  },
  {
    "compound": "Cc1nc(NC2CCC2)nc(N[C@@H]2C[C@H](CO)[C@@H](O)[C@H]2O)c1-c1nc2ccccc2s1",
    "assayed-system": "HCV replicon cells",
    "observed-result": "0.5 to 5 µM"
  },
  {
    "compound": "Cc1nc(NCC(F)(F)F)nc(N[C@@H]2C[C@H](CN3CCOC3=O)[C@@H](O)[C@H]2O)c1-c1nc2ccccc2s1",
    "assayed-system": "HCV replicon cells",
    "observed-result": "< 0.5 µM"
  },
  {
    "compound": "CCc1nccc2sc(-c3c(C)nc(N[C@H](C)C4CC4)nc3N[C@@H]3C[C@H](CS(C)(=O)=O)[C@@H](O)[C@H]3O)nc12",
    "assayed-system": "HCV replicon cells",
    "observed-result": "< 0.5 µM"
  },
  {
    "compound": "Cc1nc(NCC2CC2)nc(N[C@@H]2C[C@H](CO)[C@@H](O)[C@H]2O)c1-c1nc2c(CC(C)C)nccc2s1",
    "assayed-system": "HCV replicon cells",
    "observed-result": "< 0.5 µM"
  },
  {
    "compound": "Cc1nc(N[C@H](C)c2ccc(OC(F)F)cc2)nc(N[C@@H]2C[C@H](CO)[C@@H](O)[C@H]2O)c1-c1nc2c(C)nccc2s1",
    "assayed-system": "HCV replicon cells",
    "observed-result": "< 0.5 µM"
  },
  {
    "compound": "Cc1nc(NCC(F)(F)F)nc(N[C@@H]2C[C@H](C(O)c3nccn3C)[C@@H](O)[C@H]2O)c1-c1nc2ccccc2s1 (some centres unmarked)",
    "assayed-system": "HCV replicon cells",
    "observed-result": "< 0.5 µM"
  },
  {
    "compound": "Cc1nc(NC2CC2)nc(N[C@@H]2C[C@H](CO)[C@@H](O)[C@H]2O)c1-c1nc2c(C)nccc2s1",
    "assayed-system": "HCV replicon cells",
    "observed-result": "< 0.5 µM"
  },
  {
    "compound": "Cc1nc(NCC(F)(F)F)nc(N[C@@H]2C[C@@H](CN(CC3CC3)S(C)(=O)=O)[C@@H](O)[C@H]2O)c1-c1nc2ccccc2s1",
    "assayed-system": "HCV replicon cells",
    "observed-result": "0.5 to 5 µM"
  },
  {
    "compound": "Cc1nc(NCC(F)(F)F)nc(N[C@@H]2C[C@H](C(C)(C)O)[C@@H](O)[C@H]2O)c1-c1nc2ccccc2s1",
    "assayed-system": "HCV replicon cells",
    "observed-result": "0.5 to 5 µM"
  },
  {
    "compound": "Cc1nc(Nc2cccc3cccnc23)nc(N[C@@H]2C[C@H](CO)[C@@H](O)[C@H]2O)c1-c1nc2ccccc2s1",
    "assayed-system": "HCV replicon cells",
    "observed-result": "> 5 µM"
  },
  {
    "compound": "CCOc1cc2sc(-c3c(C)nc(NCC4CC4)nc3N[C@@H]3C[C@H](CO)[C@@H](O)[C@H]3O)nc2c(C)n1",
    "assayed-system": "HCV replicon cells",
    "observed-result": "0.5 to 5 µM"
  },
  {
    "compound": "Cc1ccc([C@@H](C)Nc2nc(C)c(-c3nc4c(CC(C)C)nccc4s3)c(N[C@@H]3C[C@H](CO)[C@@H](O)[C@H]3O)n2)cc1",
    "assayed-system": "HCV replicon cells",
    "observed-result": "< 0.5 µM"
  },
  {
    "compound": "Cc1nc(NCC2CC2)nc(N[C@H]2[C@H](O)CC[C@@H]2O)c1-c1nc2ccccc2s1",
    "assayed-system": "HCV replicon cells",
    "observed-result": "> 5 µM"
  }
]
